Item-by-item account of EC50
Molecular target: UniProtKB P06401
Sequence (P06401 1-933): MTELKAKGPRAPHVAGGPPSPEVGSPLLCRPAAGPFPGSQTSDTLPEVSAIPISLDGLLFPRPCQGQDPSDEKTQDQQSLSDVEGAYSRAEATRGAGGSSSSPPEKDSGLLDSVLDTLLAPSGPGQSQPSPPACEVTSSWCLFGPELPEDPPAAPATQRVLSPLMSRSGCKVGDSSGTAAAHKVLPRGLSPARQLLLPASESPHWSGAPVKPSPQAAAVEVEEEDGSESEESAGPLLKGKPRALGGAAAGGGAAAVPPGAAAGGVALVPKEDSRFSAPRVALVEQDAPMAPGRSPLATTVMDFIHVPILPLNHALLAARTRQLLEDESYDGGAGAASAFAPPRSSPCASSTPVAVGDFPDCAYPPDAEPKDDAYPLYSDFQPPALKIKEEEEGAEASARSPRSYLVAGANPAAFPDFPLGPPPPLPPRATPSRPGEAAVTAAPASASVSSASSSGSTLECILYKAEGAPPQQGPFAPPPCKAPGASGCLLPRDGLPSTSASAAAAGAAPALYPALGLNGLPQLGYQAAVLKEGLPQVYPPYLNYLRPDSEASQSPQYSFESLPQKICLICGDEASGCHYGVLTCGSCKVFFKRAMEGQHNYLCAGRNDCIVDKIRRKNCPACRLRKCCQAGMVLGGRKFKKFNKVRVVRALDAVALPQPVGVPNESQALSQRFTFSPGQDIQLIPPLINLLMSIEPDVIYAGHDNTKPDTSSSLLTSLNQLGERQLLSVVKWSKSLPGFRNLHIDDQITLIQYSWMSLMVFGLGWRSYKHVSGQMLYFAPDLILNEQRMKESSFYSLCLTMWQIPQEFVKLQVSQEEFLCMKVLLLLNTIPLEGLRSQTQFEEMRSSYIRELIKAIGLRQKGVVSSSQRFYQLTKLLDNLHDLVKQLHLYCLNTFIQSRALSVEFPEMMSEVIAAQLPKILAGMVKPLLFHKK
Experiment: Progesterone receptor-B transactivation, agonistic mode (CHO cells, luciferase)
Format: cell-based
Conditions: CHO cells, agonistic mode; read-out: PRBagoEC50
Counter-ions that a name gives are not always drawn.
result type: EC50 (nM)

>>> val("C[C@@H]1C[C@H]2[C@@H]3CCC4=CC(=O)CCC4=C3[C@@H](c3ccc(-c4cccnc4)cc3)C[C@]2(C)[C@H]1C(=O)C1CC1")
0.2
>>> val("C[C@]12C[C@H](c3ccc(-c4cccnc4)cc3)C3=C4CCC(=O)C=C4CC[C@H]3[C@@H]1C[C@H]1C[C@]12C(=O)C1CC1")
2
>>> val("CC12CC(c3ccc(-c4cccnc4)cc3)C3=C4CCC(=O)C=C4CCC3C1CCC21CCCC1=O (stereo not drawn) [Example 25, hydrochloride]")
0.48
>>> val("C[C@]12C[C@H](c3ccc(-c4cccnc4)cc3)C3=C4CCC(=O)C=C4CC[C@H]3[C@@H]1CC[C@]2(C)C(=O)C1CC1")
0.49
>>> val("COc1ccc(-c2ccc([C@H]3C[C@@]4(C)[C@@H](C[C@@H](C)[C@@H]4C(=O)C4CC4)[C@@H]4CCC5=CC(=O)CCC5=C43)cc2)cn1")
0.12
>>> val("C[C@@H]1C[C@H]2[C@@H]3CCC4=CC(=O)CCC4=C3[C@@H](c3ccc(-c4ccccn4)cc3)C[C@]2(C)[C@H]1C(=O)C1CC1")
2.6
